Source: ChEMBL document CHEMBL1128442

# TGT: Methylated-DNA--protein-cysteine methyltransferase (Homo sapiens) (UniProt P16455)
# RUN_CONDITIONS: HT-29
# Description: AGT-inactivating activity was determined by 50% inactivation in HT-29 cells upon incubation for 4 h
ENDPOINT_NAME: ED50 (µM)

Known ED50 results, listed for orientation:
Which measured ED50 belongs to `Nc1nc(N)c(Br)c(OCc2ccccc2)n1` , tested on Methylated-DNA--protein-cysteine methyltransferase (Homo sapiens) (UniProt P16455)?
0.8

Which measured ED50 belongs to `Nc1nc(OCc2ccccc2)c2[nH]c(O)nc2n1` , tested on Methylated-DNA--protein-cysteine methyltransferase (Homo sapiens) (UniProt P16455)?
0.15

Which measured ED50 belongs to `Fc1nc(OCc2ccccc2)c2[nH]cnc2n1` , tested on Methylated-DNA--protein-cysteine methyltransferase (Homo sapiens) (UniProt P16455)?
12

Which measured ED50 belongs to `CC(=O)Nc1nc(OCc2ccccc2)c2[nH]c(O)nc2n1` , tested on Methylated-DNA--protein-cysteine methyltransferase (Homo sapiens) (UniProt P16455)?
11

Which measured ED50 belongs to `Nc1cc(OCc2ccccc2)nc(N)n1` , tested on Methylated-DNA--protein-cysteine methyltransferase (Homo sapiens) (UniProt P16455)?
5

1 = Nc1nc(N)nc(OCc2ccccc2)n1
2 = Oc1nc(OCc2ccccc2)c2[nH]cnc2n1
Could you determine which record has the numerically smaller ED50? Candidates: 1 and 2 Identify your selection by its label.
1
(1: 1 µM, 2: 35 µM)

---

# TGT: Methylated-DNA--protein-cysteine methyltransferase (Homo sapiens)
# RUN_CONDITIONS: HT-29
ENDPOINT_NAME: ED50 (µM)

For `Nc1nc(N)c(N=O)c(OCc2ccccc2)n1` , what is its reported ED50?
0.02

For `Nc1nc(OCc2ccccc2)c2[nH]c(Br)nc2n1` , what is its reported ED50?
0.06

For `Nc1nc(OCc2ccccc2)c2[nH]c(C(F)(F)F)nc2n1` , what is its reported ED50?
0.25

For `CN(C)c1nc(OCc2ccccc2)c2[nH]cnc2n1` , what is its reported ED50?
110

For `Nc1ncnc(OCc2ccccc2)c1[N+](=O)[O-]` , what is its reported ED50?
8

For `Nc1nc(OCc2ccccc2)c2[nH]c(N)nc2n1` , what is its reported ED50?
2

a = Nc1nc(N)c(N)c(OCc2ccccc2)n1
b = Cc1nc2[nH]c(N)nc(OCc3ccccc3)c-2n1
c = CNc1nc(OCc2ccccc2)c2[nH]cnc2n1
d = Nc1nc(OCc2ccccc2)c2[nH]nnc2n1
Given 4 compounds, produce a descending ranking by ED50. Provide the ranking by listing each label in its place in the requested order.
c, a, b, d
(c: 60 µM, a: 0.3 µM, b: 0.1 µM, d: 0.06 µM)

A = Cc1nc(N)nc(OCc2ccccc2)c1[N+](=O)[O-]
B = Oc1nc(OCc2ccccc2)c2[nH]c(O)nc2n1
Could you determine which record has the numerically smaller ED50? Candidates: A and B Identify your selection by its label.
A

---

# TGT: Methylated-DNA--protein-cysteine methyltransferase (Homo sapiens) (UniProt P16455)
# Sequence (whole entry): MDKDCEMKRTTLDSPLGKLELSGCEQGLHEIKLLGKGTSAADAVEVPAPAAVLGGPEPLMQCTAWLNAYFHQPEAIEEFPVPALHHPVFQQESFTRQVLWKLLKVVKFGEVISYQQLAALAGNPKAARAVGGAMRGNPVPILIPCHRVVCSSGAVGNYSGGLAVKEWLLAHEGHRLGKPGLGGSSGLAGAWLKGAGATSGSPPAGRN
# RUN_CONDITIONS: HT-29
# Description: AGT-inactivating activity was determined by 50% inactivation in HT-29 cell free extract upon incubation for 30 min
ENDPOINT_NAME: ED50 (nM)

Known ED50 results, listed for orientation:
For `CN(C)c1nc(OCc2ccccc2)c2[nH]cnc2n1` , what is its reported ED50?
200000

For `Nc1nc(N)c(Br)c(OCc2ccccc2)n1` , what is its reported ED50?
2000

For `CNc1nc(OCc2ccccc2)c2[nH]cnc2n1` , what is its reported ED50?
160000

I = Nc1cc(OCc2ccccc2)nc(N)n1
II = Fc1nc(OCc2ccccc2)c2[nH]cnc2n1
III = Nc1nc(OCc2ccccc2)c2[nH]c(N)nc2n1
IV = Nc1nc(OCc2ccccc2)c2[nH]c(Br)nc2n1
Put the items in order so that reported ED50 rises from first to last. Provide the ranking by listing each label in its place in the requested order.
IV, III, I, II

I = CC(=O)Nc1nc(OCc2ccccc2)c2[nH]c(O)nc2n1
II = Nc1ncnc(OCc2ccccc2)c1[N+](=O)[O-]
III = Nc1nc(N)nc(OCc2ccccc2)n1
IV = Nc1nc(N)c(N)c(OCc2ccccc2)n1
Put the items in order so that reported ED50 rises from first to last. Provide the ranking by listing each label in its place in the requested order.
IV, III, II, I
(IV: 400 nM, III: 4000 nM, II: 28000 nM, I: 65000 nM)

---

# TGT: Methylated-DNA--protein-cysteine methyltransferase (Homo sapiens) (UniProt P16455)
# RUN_CONDITIONS: HT-29
ENDPOINT_NAME: ED50 (nM)

Known ED50 results, listed for orientation:
For `Oc1nc(OCc2ccccc2)c2[nH]cnc2n1` , what is its reported ED50?
60000

For `Nc1nc(OCc2ccccc2)c2[nH]nnc2n1` , what is its reported ED50?
70

For `Cc1nc2[nH]c(N)nc(OCc3ccccc3)c-2n1` , what is its reported ED50?
300

For `Nc1nc(N)c(N=O)c(OCc2ccccc2)n1` , what is its reported ED50?
60

For `Nc1nc(OCc2ccccc2)c2[nH]c(O)nc2n1` , what is its reported ED50?
300

a = Oc1nc(OCc2ccccc2)c2[nH]c(O)nc2n1
b = Cc1nc(N)nc(OCc2ccccc2)c1[N+](=O)[O-]
Of the two listed items, a and b , which carries the larger ED50 figure? Identify your selection by its label.
a
(a: 25000 nM, b: 400 nM)
